Quick reference: viability at 10 µM of the listed items.
system: human follicle dermal papilla cells (HFDPC); test: Human follicle dermal papilla cell (HFDPC) proliferation, MTT assay; format: cell-based; conditions: Homo sapiens, 96 h, 10 μM; percentage of control value (cells treated with D-MEM only); four days incubation
Measured parameter: viability at 10 µM (%)

> print(dat)
                                   compound  value.unit  value
1  CO/C=C/C=C/C=C/C1C=CC(/C=C/C=C/C=C/OC)O1 (centres unmarked)           %    165
2  C=C1CC2CC(C)(C)C(C)(C)CN2CC1CCCCC/C=C/C (centres unmarked)           %    139
3  O=C(O)C1OC(Oc2c(-c3ccc(O)cc3)oc3cc(O)cc(O)c3c2=O)C(O)C(O)C1O [KOG, kaempferol-3-O-β-D-glucuronide]           %    118
4  Nc1cc(N2CCCCC2)nc(N)[n+]1[O-] [Minoxidil, reference compound]           %    116
5  C=C1CCC2C(C)(C)CCCC2(C)C1C/C=C(/C=O)CC=O (centres unmarked)           %    133
